- System: NCI-60 cancer cell lines
- assay method text: NCI-60 cancer cell line drug screen (GI50, MGM)
- Assay type: cell-based, human
- particulars: Homo sapiens, OVCAR-8, Ovarian Cancer, OVCAR-8; read-out: Antiproliferative Activities [GI50 (μM)]
quantity name: GI50 (µM)

[
  {
    "item smiles": "COc1cc2c(cc1O)-c1c(c3ccc([N+](=O)[O-])cc3c(=O)n1CCCN1CCOCC1)C2=O",
    "assayed target": "NCI-60 cancer cell lines",
    "quantity name": "GI50",
    "reported result": 0.45
  },
  {
    "item smiles": "CNCCCn1c2c(c3ccc(F)cc3c1=O)C(=O)c1cc(OC)cnc1-2",
    "assayed target": "NCI-60 cancer cell lines",
    "quantity name": "GI50",
    "reported result": 0.19
  },
  {
    "item smiles": "CNCCCn1c2c(c3ccc([N+](=O)[O-])cc3c1=O)C(=O)c1cc(OC)cnc1-2",
    "assayed target": "NCI-60 cancer cell lines",
    "quantity name": "GI50",
    "reported result": 0.09
  },
  {
    "item smiles": "COc1ccc2c(c1)C(=O)c1c-2n(CCCN2CCOCC2)c(=O)c2ccccc12",
    "assayed target": "NCI-60 cancer cell lines",
    "quantity name": "GI50",
    "reported result": 3.11
  },
  {
    "item smiles": "COc1cnc2c(c1)C(=O)c1c-2n(CCCNCCN2CCOCC2)c(=O)c2cc([N+](=O)[O-])ccc12",
    "assayed target": "NCI-60 cancer cell lines",
    "quantity name": "GI50",
    "reported result": 0.17
  },
  {
    "item smiles": "COc1cnc2c(c1)C(=O)c1c-2n(CCCN2CCCC2)c(=O)c2cc([N+](=O)[O-])ccc12",
    "assayed target": "NCI-60 cancer cell lines",
    "quantity name": "GI50",
    "reported result": 0.09
  },
  {
    "item smiles": "COc1cc2c(cc1O)-c1c(c3ccc([N+](=O)[O-])cc3c(=O)n1CCCN)C2=O",
    "assayed target": "NCI-60 cancer cell lines",
    "quantity name": "GI50",
    "reported result": 1.01
  },
  {
    "item smiles": "O=C1c2ccccc2-c2c1c1ccccc1c(=O)n2CCCNCCO",
    "assayed target": "NCI-60 cancer cell lines",
    "quantity name": "GI50",
    "reported result": 0.07
  },
  {
    "item smiles": "CN(C)CCCn1c2c(c3ccc(-c4ccn[nH]4)cc3c1=O)C(=O)c1ccccc1-2",
    "assayed target": "NCI-60 cancer cell lines",
    "quantity name": "GI50",
    "reported result": 0.16
  },
  {
    "item smiles": "COc1cnc2c(c1)C(=O)c1c-2n(CCCNC(C)C)c(=O)c2cc(F)ccc12",
    "assayed target": "NCI-60 cancer cell lines",
    "quantity name": "GI50",
    "reported result": 0.14
  },
  {
    "item smiles": "CN(C)CCCn1c2c(c3cccnc3c1=O)C(=O)c1ccccc1-2",
    "assayed target": "NCI-60 cancer cell lines",
    "quantity name": "GI50",
    "reported result": 0.95
  },
  {
    "item smiles": "CN(C)CCCn1c2c(c3ccc(N4CCNCC4)cc3c1=O)C(=O)c1ccccc1-2",
    "assayed target": "NCI-60 cancer cell lines",
    "quantity name": "GI50",
    "reported result": 0.4
  },
  {
    "item smiles": "COc1cnc2c(c1)C(=O)c1c-2n(CCCNC2=NCCS2)c(=O)c2cc([N+](=O)[O-])ccc12",
    "assayed target": "NCI-60 cancer cell lines",
    "quantity name": "GI50",
    "reported result": 0.02
  },
  {
    "item smiles": "CNCCCn1c2c(c3ccc(Cl)cc3c1=O)C(=O)c1cc(OC)cnc1-2",
    "assayed target": "NCI-60 cancer cell lines",
    "quantity name": "GI50",
    "reported result": 1.18
  },
  {
    "item smiles": "COc1cc2c(cc1O)-c1c(c3ccc([N+](=O)[O-])cc3c(=O)n1CCCn1ccnc1)C2=O",
    "assayed target": "NCI-60 cancer cell lines",
    "quantity name": "GI50",
    "reported result": 0.89
  },
  {
    "item smiles": "COc1cc2c3c(n(CCCn4ccnc4)c(=O)c2cc1OC)-c1cc2c(cc1C3=O)OCO2",
    "assayed target": "NCI-60 cancer cell lines",
    "quantity name": "GI50",
    "reported result": 1.03
  }
]
